assay: Isothermal titration calorimetry (ITC) of CfAvr4 variants with chitin hexasaccharide
Assay type: binding
test conditions: ITC, (GlcNAc)6
parameter: increase in the Kd relative to WT-CfAvr4

Below, 4 molecules whose answers are already recorded.
molecule	increase in the Kd relative to WT-CfAvr4
N93A (protein, left off: 6x His (two), N-terminal, state not stated) KAPKTQPYNPCKPQEVIDTKCMGPKDCLYPNPDSCTTYIQCVPLDEVGNAKPVVKPCPKGLQWADNVGKKWCDYPNLSTCPVKTPQ	six
K84A (protein, left off: 6x His (two), N-terminal, state not stated) KAPKTQPYNPCKPQEVIDTKCMGPKDCLYPNPDSCTTYIQCVPLDEVGNAKPVVAPCPKGLQWNDNVGKKWCDYPNLSTCPVKTPQ	~ 20 fold
Q69N (protein, left off: 6x His (two), N-terminal, state not stated) KAPKTQPYNPCKPQEVIDTKCMGPKDCLYPNPDSCTTYINCVPLDEVGNAKPVVKPCPKGLQWNDNVGKKWCDYPNLSTCPVKTPQ	~ 20 fold
D94A (protein, left off: 6x His (two), N-terminal, state not stated) KAPKTQPYNPCKPQEVIDTKCMGPKDCLYPNPDSCTTYIQCVPLDEVGNAKPVVKPCPKGLQWNANVGKKWCDYPNLSTCPVKTPQ	five

For the molecule shown here, N95A (protein, left off: 6x His (two), N-terminal, state not stated) KAPKTQPYNPCKPQEVIDTKCMGPKDCLYPNPDSCTTYIQCVPLDEVGNAKPVVKPCPKGLQWNDAVGKKWCDYPNLSTCPVKTPQ , give the reported increase in the Kd relative to WT-CfAvr4. three
